Sourced from patent US9982005B2

Test system: EC882 E. coli imp
test: broth dilution MIC, E. coli EC882
Assay type: cell-based
conditionDescription: Escherichia coli
Below, each entry is listed alongside its reported MIC.

- molecule: "CC[C@H]1OC(=O)[C@](C)(F)C(=O)C[C@@H](O[C@@H]2OC(C)CC(N(C)C)C2O)[C@](C)(OC)C[C@@H](C)CN[C@H](C)[C@H]2N(CCCCn3cc(-c4nc5ccccc5s4)nn3)C(=O)O[C@]12C (stereo partly shown) [FSM-10671]"
  MIC: "8 µg/mL"
- molecule: "CC[C@H]1OC(=O)[C@H](C)C(=O)C[C@@H](O[C@@H]2OC(C)CC(N(C)C)C2O)[C@@](C)(OC)C[C@@H](C)CN[C@H](C)[C@H]2N(CCCCn3cc(-c4ccccn4)nn3)C(=O)O[C@]12C (stereo partly shown) [FSM-30517]"
  MIC: "> 32 µg/mL"
- molecule: "CC[C@H]1OC(=O)[C@H](C)C(=O)[C@H](C)[C@@H](O[C@@H]2OC(C)CC(N(C)C)C2O)[C@](C)(OC)C[C@@H](C)CN(C(C)=O)[C@H](C)[C@H]2N(CCCCn3cc(-c4nccs4)nn3)C(=O)O[C@]12C (stereo partly shown) [FSM-20763]"
  MIC: "2 µg/mL"
- molecule: "CC[C@H]1OC(=O)[C@H](C)C(=O)[C@H](C)[C@@H](O[C@@H]2OC(C)CC(N(C)C)C2O)[C@](C)(OC)C[C@@H](C)CN(C(C)=O)[C@H](C)[C@H]2N(CCCCn3cc(-c4cccc(N)c4)nn3)C(=O)O[C@]12C (stereo partly shown) [FSM-20767]"
  MIC: "1 µg/mL"
